Assay name: Cytotoxicity against human PC3 cells after 48 hrs by MTT assay
Type: functional, cell-based, PC-3
Assay context: Homo sapiens, PC-3, 48 h; read-out: IC50
pIC50: −log10 of the molar value.
Returns criterion met if the recorded pIC50 is greater than or equal to 5, and criterion not met otherwise.

INSERT INTO assay_data (molecule, label) VALUES
  ('O=C(CNC1CC1)N1N=C(c2cc3ccccc3oc2=O)CC1c1ccccc1 (stereo not given)', 'criterion not met'),
  ('CC1=NN(C(=O)COc2ccc(Cl)cc2)C(c2ccccc2O)C1 (stereo not given)', 'criterion not met'),
  ('CCNCC(=O)N1N=C(c2cc3ccccc3oc2=O)CC1c1ccccc1 (stereo not given)', 'criterion met'),
  ('CCN(CC)C1CCN(CC(=O)N2N=C(c3cc4ccccc4oc3=O)CC2c2ccccc2)CC1 (stereo not given)', 'criterion not met'),
  ('CN1CCN(CC(=O)N2N=C(c3cc4ccccc4oc3=O)CC2c2ccccc2)CC1 (stereo not given)', 'criterion not met'),
  ('CC[N+](C)(CC)CC(=O)N1N=C(C)CC1c1ccccc1OC (stereo not given)', 'criterion met'),
  ('CC(C)CNCC(=O)N1N=C(c2cc3ccccc3oc2=O)CC1c1ccccc1 (stereo not given)', 'criterion met'),
  ('COc1ccccc1C1CC(C)=NN1C(=O)CN1CCC(OC)CC1 (stereo not given)', 'criterion not met');
